Source: the RNAGym collection of RNA variant scans (doi:10.1126/science.aae0568)

B1: tRNA (parent)
chain: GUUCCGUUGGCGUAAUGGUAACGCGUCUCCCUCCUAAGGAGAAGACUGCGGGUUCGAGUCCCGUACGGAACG

- Variants of: B1
- Method Description: yeast fitness relative to wild type (ratio to wild type); higher = fitter; tRNA-Arg(CCU), competitive growth, 37 C, YPD
This sample holds only a part of the variants without activity.
Parameter: yeast fitness
Lab note: record the figure alone, no unit after it.

Take a look at these entries with their results.
C5G G6C G48A    1.06
U13C A40U C62A    0.557

In: Give the measured yeast fitness for C5G C11A U19C A20C C33A C61G
Out: 0.676

In: Give the measured yeast fitness for G44A G56A U59A
Out: 0.575

In: Give the measured yeast fitness for U2C C29G
Out: 0.626

In: Give the measured yeast fitness for C4A C24A G52C A57C U59A
Out: 0.57

In: Give the measured yeast fitness for U26C U32C
Out: 0.874

In: Give the measured yeast fitness for C27U C31A
Out: 0.758

In: Give the measured yeast fitness for G48A C60G
Out: 0.583

In: Give the measured yeast fitness for C11G C46U A65C
Out: 0.561

In: Give the measured yeast fitness for U2C C29A
Out: 0.659

In: Give the measured yeast fitness for A15U A65U
Out: 0.775

In: Give the measured yeast fitness for C4G C33U
Out: 0.708

In: Give the measured yeast fitness for G10A C46A
Out: 0.677

In: Give the measured yeast fitness for C11U C24G C27G G52A
Out: 0.551

In: Give the measured yeast fitness for A20C U64G
Out: 0.746
